system: human ΔF508-CFTR (Homo sapiens, UniProt P13569, DEL508-508)
Sequence (P13569 with tags, fused parts or gaps DEL508-508): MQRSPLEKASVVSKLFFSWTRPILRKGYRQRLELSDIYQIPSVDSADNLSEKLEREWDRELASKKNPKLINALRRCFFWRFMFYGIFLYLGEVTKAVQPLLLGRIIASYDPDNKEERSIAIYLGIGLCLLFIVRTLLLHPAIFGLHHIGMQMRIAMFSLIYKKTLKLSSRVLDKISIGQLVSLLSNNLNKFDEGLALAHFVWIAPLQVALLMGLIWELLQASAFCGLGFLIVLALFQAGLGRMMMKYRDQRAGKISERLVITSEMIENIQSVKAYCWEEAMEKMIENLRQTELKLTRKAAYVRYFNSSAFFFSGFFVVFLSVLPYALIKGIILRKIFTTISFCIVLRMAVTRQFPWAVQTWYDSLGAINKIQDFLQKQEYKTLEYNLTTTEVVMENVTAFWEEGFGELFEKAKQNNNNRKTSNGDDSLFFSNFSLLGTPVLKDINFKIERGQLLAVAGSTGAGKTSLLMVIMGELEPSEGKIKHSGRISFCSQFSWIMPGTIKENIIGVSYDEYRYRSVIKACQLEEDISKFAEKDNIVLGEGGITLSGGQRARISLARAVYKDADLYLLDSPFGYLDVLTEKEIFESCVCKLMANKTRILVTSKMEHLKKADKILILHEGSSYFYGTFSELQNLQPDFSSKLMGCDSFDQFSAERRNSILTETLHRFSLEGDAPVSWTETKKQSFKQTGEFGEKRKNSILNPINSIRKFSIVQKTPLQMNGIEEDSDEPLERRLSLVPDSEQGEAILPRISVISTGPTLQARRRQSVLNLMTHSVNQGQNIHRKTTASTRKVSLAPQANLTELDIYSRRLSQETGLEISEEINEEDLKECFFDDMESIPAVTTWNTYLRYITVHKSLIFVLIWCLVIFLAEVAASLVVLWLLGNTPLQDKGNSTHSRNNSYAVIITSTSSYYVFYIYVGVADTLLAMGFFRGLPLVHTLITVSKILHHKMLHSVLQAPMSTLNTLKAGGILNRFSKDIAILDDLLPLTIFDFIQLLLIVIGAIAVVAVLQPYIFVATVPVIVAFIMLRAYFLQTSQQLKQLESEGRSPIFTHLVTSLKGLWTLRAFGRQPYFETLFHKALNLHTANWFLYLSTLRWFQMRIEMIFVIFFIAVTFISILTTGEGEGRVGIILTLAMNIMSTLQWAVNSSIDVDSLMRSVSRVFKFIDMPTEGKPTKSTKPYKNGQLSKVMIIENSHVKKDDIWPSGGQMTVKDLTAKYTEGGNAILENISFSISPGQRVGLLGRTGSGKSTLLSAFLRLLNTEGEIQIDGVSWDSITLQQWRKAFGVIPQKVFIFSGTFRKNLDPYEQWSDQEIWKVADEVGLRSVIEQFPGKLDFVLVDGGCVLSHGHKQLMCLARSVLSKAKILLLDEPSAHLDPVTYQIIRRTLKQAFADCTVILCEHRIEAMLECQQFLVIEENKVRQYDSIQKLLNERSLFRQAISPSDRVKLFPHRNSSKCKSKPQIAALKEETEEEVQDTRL
assayOverview: CFTR-YFP High Throughput Assay (YFP halide flux in FRT cells)
experimentalParameters: FRT cells expressing human ΔF508-CFTR and YFP; forskolin stimulated
parameterMeasured: EC50

# compound, measuredValue
rows = [
    ("CCN(C(=O)c1nn(-c2nc3ccccc3s2)c(=O)c2c1c1ccccc1n2C)c1ccccc1 [Example 123]", "10 to 20 µM"),
    ("COc1ccc2c(-c3cccc(C#N)c3)nn(CC(=O)N(c3ccc4c(c3)OC(F)(F)O4)C(C)C)c(=O)c2c1 [Example 70]", "< 10 µM"),
    ("CCc1ccc(N(CC)C(=O)Cn2nc(-c3cccnc3)c3ccccc3c2=O)cc1 [Example 3]", "> 20 µM"),
    ("CCc1ccc(N(CC)C(=O)Cn2nc(Cc3cccnc3)c3cccc(F)c3c2=O)cc1 [Example 37]", "< 10 µM"),
    ("CCN(CC)C(=O)c1nn(-c2ccc(C)cc2)c(=O)c2c1c1ccccc1n2C [Example 106]", "< 10 µM"),
    ("CCc1ccc(N(CC)C(=O)Cn2nc(Cc3cccnc3)c3cc(C)ccc3c2=O)cc1 [Example 29]", "< 10 µM"),
    ("CCc1ccc(N(CC)C(=O)Cn2nc(Cc3cccnc3)c3cc(Cl)c(Cl)cc3c2=O)cc1 [Example 38]", "> 20 µM"),
    ("CCN(C(=O)Cn1ncc2c(c1=O)c1ccccc1n2Cc1cccnc1)c1ccc2c(c1)OC(F)(F)O2 [Example 94]", "< 10 µM"),
    ("CCN(C(=O)c1nn(-c2ccccn2)c(=O)c2c1c1ccccc1n2C)c1ccccc1 [Example 118]", "< 10 µM"),
    ("CCN(C(=O)c1nn(-c2ccc(Cl)cc2)c(=O)c2c1c1ccccc1n2C)c1ccccc1 [Example 129]", "< 10 µM"),
    ("CCN(C(=O)Cn1nc(Cc2cccnc2)c2cc(C(C)(C)C)ccc2c1=O)c1ccc2c(c1)OC(F)(F)O2 [Example 49]", "< 10 µM"),
    ("Cc1ccc(-n2nc(C(=O)N(CC#N)c3ccccc3)c3c4ccccc4n(C)c3c2=O)cc1 [Example 105]", "< 10 µM"),
    ("CCN(C(=O)Cn1nc(-c2ccc(S(N)(=O)=O)cc2)c2ccc(OC)cc2c1=O)c1ccc2c(c1)OC(F)(F)O2 [Example 65]", "< 10 µM"),
    ("CCN(C(=O)Cn1nc(C(=O)N(C)c2ccccn2)c2ccccc2c1=O)c1ccc2c(c1)OC(F)(F)O2 [Example 81]", "10 to 20 µM"),
    ("Cc1ccc(-n2nc(C(=O)N3CCCCC3)c3c4ccccc4n(C)c3c2=O)cc1 [Example 101]", "< 10 µM"),
    ("COc1ccc(N(C)C(=O)Cn2nc(Cc3cccnc3)c3ccccc3c2=O)cc1 [Example 27]", "< 10 µM"),
    ("CCN(C(=O)Cn1ncc2c(c1=O)c1ccccc1n2Cc1ccccc1C#N)c1ccc2c(c1)OC(F)(F)O2 [Example 95]", "< 10 µM"),
    ("Cc1ccc(-n2nc(C(=O)N3CCN(Cc4ccccc4)CC3)c3c4ccccc4n(C)c3c2=O)cc1 [Example 112]", "< 10 µM"),
    ("CCc1ccc(N(CC)C(=O)Cn2nc(Cc3cccnc3)c3cnccc3c2=O)cc1 [Example 42]", "> 20 µM"),
    ("COc1ccc2c(-c3ccc(S(N)(=O)=O)cc3)nn(CC(=O)N(C)c3ccc4c(c3)OC(F)(F)O4)c(=O)c2c1 [Example 64]", "< 10 µM"),
    ("CCc1ccc(N(CC)C(=O)Cn2nc(Cc3cccnc3)c3ccccc3c2=O)cc1 [Example 25]", "< 10 µM"),
    ("CCN(C(=O)c1nn(-c2ccc(C)cc2)c(=O)c2c1c1ccccc1n2C)C1CC1 [Example 111]", "< 10 µM"),
    ("CCc1ccc(N(CC)C(=O)Cn2nc(C(=O)N(CC)c3cccc(Cl)c3)c3c4ccccc4n(C)c3c2=O)cc1 [Example 142]", "< 10 µM"),
    ("CCOc1cccc2c(Cc3cccnc3)nn(CC(=O)N(CC)c3ccc4c(c3)OC(F)(F)O4)c(=O)c12 [Example 57]", "< 10 µM"),
    ("CCN(C(=O)Cn1nc(Cc2cccnc2)c2ccc(C(C)(C)C)cc2c1=O)c1ccc2c(c1)OC(F)(F)O2 [Example 50]", "< 10 µM"),
    ("CCN(C(=O)Cn1nc(Cc2cccnc2)c2c(OC)cccc2c1=O)c1ccc2c(c1)OC(F)(F)O2 [Example 56]", "< 10 µM"),
    ("CCN(C(=O)Cn1nc(Cc2cccnc2)c2cc(OC)ccc2c1=O)c1ccc2c(c1)OC(F)(F)O2 [Example 51]", "< 10 µM"),
    ("CCOc1cccc2c(=O)n(CC(=O)N(CC)c3ccc4c(c3)OC(F)(F)O4)nc(Cc3cccnc3)c12 [Example 58]", "10 to 20 µM"),
    ("CCN(C(=O)Cn1ncc2c([nH]c3ccccc32)c1=O)c1ccc2c(c1)OC(F)(F)O2 [Example 149]", "< 10 µM"),
    ("CCN(C(=O)c1nn(C2CCN(Cc3ccccc3)CC2)c(=O)c2c1c1ccccc1n2C)c1ccccc1 [Example 137]", "< 10 µM"),
    ("CCN(C(=O)Cn1nc(-c2cccc(C#N)c2)c2ccc(OC)cc2c1=O)c1ccc(OC(F)F)cc1 [Example 67]", "< 10 µM"),
]
